Quick list: phenotypically active per entry.
# Tested on: HepG2-GM130-SQSTM1
# Protocol Summary: phenotypically active (imaging signature differs from DMSO and reproducible) at any of 0.3-9 uM (binary (1 = active, 0 = inactive)); higher = active
# Particulars: treatment time: 24 h
Where a name gives a salt, the structure may show the parent alone.

Record excerpt, results attached:
>>> assay_result("CCCc1nc(C)c2c(C)nc3ccc(OC)nc3n12")
"0 (inactive)"
>>> assay_result("Nc1nccc(-c2ccc3noc(-c4ccc(Cl)cc4)c3c2)n1")
"0 (inactive)"
>>> assay_result("COc1ccccc1OCC(O)CN1CCN(CC(=O)Nc2c(C)cccc2C)CC1 (stereo not given)")
"0 (inactive)"
>>> assay_result("OC(CCN1CCCCC1)(c1ccccc1)C1CC2C=CC1C2 (stereo not given)")
"0 (inactive)"
>>> assay_result("COc1ccc(C[C@H](N)C(=O)N[C@H]2[C@@H](O)[C@H](n3cnc4c(N(C)C)ncnc43)O[C@@H]2CO)cc1 [Puromycin dihydrochloride]")
"1 (active)"

What phenotypically active value was documented for this compound, CCOC(=O)C(C)(C)Oc1ccc(Cl)cc1 [Clofibrate] ?
0 (inactive)

What phenotypically active value was documented for this compound, `CCC(=O)N1CCN(c2ccc(-n3c(=O)ccc4cnc5ccc(-c6cnc7ccccc7c6)cc5c43)cc2C(F)(F)F)CC1` ?
1 (active)

What phenotypically active value was documented for this compound, CCN1CCN(C(c2cccnc2)c2cc(Cl)c3cccnc3c2O)CC1 (stereo not given) ?
1 (active)

What phenotypically active value was documented for this compound, `CN(C)CCCN1c2ccccc2CCc2ccc(Cl)cc21` ?
0 (inactive)

---

# System: WPMY1-CANX-COX4
# Protocol Summary: phenotypically active (imaging signature differs from DMSO and reproducible) at any of 0.3-9 uM (binary (1 = active, 0 = inactive)); higher = active
# Particulars: treatment time: 24 h
Counter-ions that a name gives are not always drawn.
Please state which outcome applies, choosing from Y = active, N = inactive

The examples below pair each entry with its known result.
>>> class_assignment("Oc1cccc(-c2nc(N3CCOCC3)c3oc4ncccc4c3n2)c1 [PI 103 hydrochloride]")
"Y"
>>> class_assignment("O=C(CCCc1ccc(-c2ccccc2F)cc1)Nc1ccc(O)cc1")
"Y"
>>> class_assignment("OC[C@H]1O[C@@H](Oc2ccc(O)cc2)[C@H](O)[C@@H](O)[C@@H]1O [Arbutin]")
"N"
>>> class_assignment("COc1ccnc(CS(=O)c2nc3cc(OC(F)F)ccc3[nH]2)c1OC (stereo unspecified) [pantoprazole]")
"N"
>>> class_assignment("COc1ccc2c(c1)N(C(C)=O)[C@H]1[C@@H]3CO[C@H](C)[C@@H]4CN5CC[C@]21[C@@H]5C[C@H]34 [Strychnospermine]")
"N"

Continue with the compound presented below.
Recorded test outcome, item O=P(O)(O)C(O)(Cc1cccnc1)P(=O)(O)O [risedronate]
N

---

# System: HepG2-TP53BP1-CLTA
# Protocol Summary: phenotypically active (imaging signature differs from DMSO and reproducible) at any of 0.3-9 uM (binary (1 = active, 0 = inactive)); higher = active
# Particulars: treatment time: 24 h
Please state which outcome applies, choosing from active, inactive

The examples below pair each entry with its known result.
>>> class_assignment("Nc1ccc(C(=O)O)c(O)c1 [aminosalicylate]")
"inactive"
>>> class_assignment("Nc1ncnc2c1nc(Cl)n2C1O[C@H](CO)[C@@H](O)[C@H]1O (stereo not given in full)")
"active"
>>> class_assignment("CN1C(=O)OC(C)(C)C1=O")
"inactive"
>>> class_assignment("CCC(=O)N1CCOc2c(cc(-c3ccc(OC)c(OC)c3)cc2OC[C@H]2CCCN(C)C2)C1")
"inactive"

Continue with the compound presented below.
Recorded test outcome, item `COc1ccc2c(c1)N(C(C)=O)[C@H]1[C@@H]3CO[C@H](C)[C@@H]4CN5CC[C@]21[C@@H]5C[C@H]34`
inactive

---

Quick list: lowest phenotypically active concentration per entry.
# System: WPMY1-TUBA1B-RELA
# Protocol Summary: lowest phenotypically active concentration; higher = less potent
# Particulars: treatment time: 24 h
Structures can show the parent of a compound that is named as a salt.

Record excerpt, results attached:
>>> assay_result("O=C(NCc1cccc(O)c1)Nc1nc(-c2ccncc2)cs1 [RKI 1447 dihydrochloride]")
"≤ 0.3 µM"
>>> assay_result("CCC1(O)CC2CN(CCc3c([nH]c4ccccc34)C(C(=O)OC)(c3cc4c(cc3OC)N(C)C3C(O)(C(=O)OC)C(OC(C)=O)C5(CC)C=CCN6CCC43C65)C2)C1 (stereo not drawn) [Vinblastine sulfate]")
"≤ 0.3 µM"

Proceeding to the next molecule to report its lowest phenotypically active concentration.
Enter reported lowest phenotypically active concentration observed with WPMY1-TUBA1B-RELA for COc1cc([C@@H]2c3cc4c(cc3[C@@H](O[C@@H]3O[C@@H]5CO[C@@H](C)O[C@H]5[C@H](O)[C@H]3O)[C@H]3COC(=O)[C@H]23)OCO4)cc(OC)c1O [etoposide]
≤ 0.3 µM

---

# System: A549-TP53BP1-CLTA
# Protocol Summary: phenotypically active (imaging signature differs from DMSO and reproducible) at any of 0.3-9 uM (binary (1 = active, 0 = inactive)); higher = active
# Particulars: treatment time: 24 h
Reported Metric: phenotypically active
Give the figure only, with no unit attached.

Record excerpt, results attached:
>>> assay_result("O=C(CCCCSc1nc(-c2ccc(-c3ccccc3)cc2)cc(=O)[nH]1)NO")
1
>>> assay_result("CN1C(=O)OC(C)(C)C1=O")
0

What phenotypically active value was documented for this compound, CNCC(O)c1ccc(OC(=O)C(C)(C)C)c(OC(=O)C(C)(C)C)c1 (centres undefined) ?
0

What phenotypically active value was documented for this compound, `COc1cc2nccc(Oc3ccc(NC(=O)C4(C(=O)Nc5ccc(F)cc5)CC4)cc3)c2cc1OC` ?
0

What phenotypically active value was documented for this compound, `CCCc1cc(C)n(C)c(=O)c1CN(C)C(=O)c1cc(-c2ccc(N3CCN(C(C)C)CC3)nc2)cc2c1cnn2C(C)C` ?
0

---

# System: HepG2-GM130-SQSTM1
# Protocol Summary: lowest phenotypically active concentration; higher = less potent
# Particulars: treatment time: 24 h
Counter-ions that a name gives are not always drawn.
Quick list: lowest phenotypically active concentration per entry.

>>> assay_result("CN1CCN(c2ccc(OC(F)(F)F)c(Nc3ncc4c(n3)-c3c(c(C(N)=O)nn3CCO)CC4)c2)CC1")
"≤ 0.3 µM"

What lowest phenotypically active concentration value was documented for this molecule, CN1CC[C@H](c2c(O)cc(O)c3c(=O)cc(-c4ccccc4Cl)oc23)[C@H](O)C1 [Flavopiridol hydrochloride] ?
≤ 0.3 µM

What lowest phenotypically active concentration value was documented for this molecule, `FC(F)(F)c1ccc(/C=C/c2nc(COc3ccc(CCCCn4ccnn4)cc3)co2)cc1` ?
≤ 0.3 µM

What lowest phenotypically active concentration value was documented for this molecule, `Cc1ccc([N+](=O)[O-])cc1S(=O)(=O)N(C)/N=C/c1cnc2ccc(Br)cn12` ?
≤ 0.3 µM

---

# Tested on: HepG2-TP53BP1-CLTA
# Protocol Summary: phenotypically active (imaging signature differs from DMSO and reproducible) at any of 0.3-9 uM (binary (1 = active, 0 = inactive)); higher = active
# Particulars: treatment time: 24 h
Quick list: phenotypically active per entry.

>>> assay_result("NCC[C@H](O)C(=O)N[C@H]1C[C@@H](N)[C@H](O[C@H]2O[C@H](CN)[C@@H](O)[C@H](O)[C@H]2O)[C@@H](O)[C@@H]1O[C@H]1O[C@H](CO)[C@@H](O)[C@H](N)[C@H]1O [Amikacin hydrate]")
"0 (inactive)"
>>> assay_result("CC(c1cc2ccccc2s1)N(O)C(N)=O (stereo not given)")
"0 (inactive)"

What phenotypically active value was documented for this compound, `CC(=O)Nc1ccc(C(=O)Nc2ccccc2N)cc1` ?
1 (active)

What phenotypically active value was documented for this compound, `COc1ccc2c3c(c(=O)n(C)c2c1OC)C=CC(C)(C)O3` ?
0 (inactive)

---

# System: WPMY1-ACTB-RAB5A
# Protocol Summary: phenotypically active (imaging signature differs from DMSO and reproducible) at any of 0.3-9 uM (binary (1 = active, 0 = inactive)); higher = active
# Particulars: treatment time: 24 h
Where a name gives a salt, the structure may show the parent alone.
Please state which outcome applies, choosing from true = active, false = inactive

>>> class_assignment("NC(=O)c1ccc(I)c([N+](=O)[O-])c1")
"false"
>>> class_assignment("CN(C)CCOC(c1ccc(Cl)cc1)c1ccccn1 (configuration not stated)")
"false"
>>> class_assignment("COc1ccc2[nH]c(C(=O)c3ccccc3)cc2c1")
"true"
>>> class_assignment("C[C@@H]1COCCN1c1cc(C2(S(C)(=O)=O)CC2)nc(-c2cccc3[nH]ccc23)n1")
"true"
>>> class_assignment("CC1(C)O[C@@H]2C[C@H]3[C@@H]4C[C@H](F)C5=CC(=O)C=C[C@]5(C)[C@@]4(F)[C@@H](O)C[C@]3(C)[C@]2(C(=O)CO)O1 [fluocinolone acetonide]")
"true"
>>> class_assignment("N[C@@H](Cc1ccc(O)c(O)c1)C(=O)O")
"false"
>>> class_assignment("CCC(=C(CC)c1ccc(O)cc1)c1ccc(O)cc1 (stereo in doubt)")
"false"
>>> class_assignment("CC1(COc2ccc(CC3SC(=O)NC3=O)cc2)CCCCC1 (configuration not stated)")
"false"
>>> class_assignment("C[C@]12CC[C@@H]3c4ccc(O)cc4CC[C@H]3[C@@H]1CC[C@@H]2OC(=O)CCC1CCCC1 [estradiol cypionate]")
"false"
>>> class_assignment("CC(C)C(=O)Nc1ncc(-c2cc(C(F)F)nn2-c2c(Cl)cccc2Cl)s1")
"true"

Recorded test outcome, item O=C(Nc1cccc(Cl)c1)Nc1ncc(CCNc2ncnc3ccsc23)s1 [SNS 314 mesylate]
true
